System: L. tarentolae axenic amastigotes
Assay: alamarBlue assay, L. tarentolae axenic amastigotes
Assay type: cell-based, Leishmania tarentolae
Details: read-out: L. tarentolae axenic amastigotes EC50 ± SE
recorded.endpoint: pEC50
// pEC50: -log10(molar conc.)

Problem: Please indicate pEC50 recorded for CCc1c(C)nc(-n2nc(C)cc2NC(=O)c2ccccc2SC)[nH]c1=O [MMV676477]
Result: 7.96

* * *

For each entry below, report its CC50 value.
Respond numerically; units are nM and should not be typed.

Problem: Look up and report CC50, with RAW 264.7 cells as system, for CCc1c(C)nc(-n2nc(C)cc2NC(=O)c2ccccc2SC)[nH]c1=O [MMV676477]
Result: 2200

Problem: Look up and report CC50, with RAW 264.7 cells as system, for C#CCOc1ccc(C(=O)c2ccc(C(=O)Nc3cc(C)nn3-c3nc(C)c(CC)c(=O)[nH]3)cc2)cc1 [SW22]
Result: 1300

Problem: Look up and report CC50, with RAW 264.7 cells as system, for CCc1c(C)nc(-n2nc(C)cc2NC(=O)c2ccc(F)c(Cl)c2)[nH]c1=O [SW41]
Result: 2400
